Recorded pIC50 by entry
biological target: PKCθ (Homo sapiens, UniProt Q04759); assay: PKCθ enzyme data at 1 mM ATP; type: biochemical
Sequence (Q04759 whole entry): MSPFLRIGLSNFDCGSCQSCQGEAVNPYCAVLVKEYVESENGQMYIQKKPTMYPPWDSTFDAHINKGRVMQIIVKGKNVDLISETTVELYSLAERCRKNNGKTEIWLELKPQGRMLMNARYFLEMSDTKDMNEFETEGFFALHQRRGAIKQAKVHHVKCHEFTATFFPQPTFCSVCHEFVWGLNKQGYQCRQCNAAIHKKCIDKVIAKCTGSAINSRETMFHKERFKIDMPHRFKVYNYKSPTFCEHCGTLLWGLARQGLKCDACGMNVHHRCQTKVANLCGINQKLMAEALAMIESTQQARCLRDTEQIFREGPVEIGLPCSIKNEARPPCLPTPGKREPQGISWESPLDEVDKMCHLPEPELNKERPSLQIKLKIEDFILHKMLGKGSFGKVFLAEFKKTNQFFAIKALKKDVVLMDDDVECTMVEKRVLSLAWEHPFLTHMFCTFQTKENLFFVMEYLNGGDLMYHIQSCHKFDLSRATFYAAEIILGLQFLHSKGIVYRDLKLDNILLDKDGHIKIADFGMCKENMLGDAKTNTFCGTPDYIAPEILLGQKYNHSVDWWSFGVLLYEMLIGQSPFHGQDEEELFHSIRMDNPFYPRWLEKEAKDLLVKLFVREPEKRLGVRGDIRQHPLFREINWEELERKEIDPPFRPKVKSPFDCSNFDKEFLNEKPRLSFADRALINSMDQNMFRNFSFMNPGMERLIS
pIC50: −log10 of the molar value.

Reference set, count: 2
>  <compound>
O=C1NC(=O)C(c2c[nH]c3sccc23)=C1c1nc(N2CCC(n3ccnc3)C2)nc2ccccc12 (stereo not shown) [E.1.23]

>  <pIC50>
6.00 to 6.30

$$$$
>  <compound>
CN1CCC(Cn2cc(C3=C(c4c[nH]c5sccc45)C(=O)NC3=O)c3ccccc32)CC1 [F.4.17]

>  <pIC50>
> 7.00

$$$$

Record request: pIC50 value, item CC(C)(O)CN1CCN(c2nc(C3=C(c4c[nH]c5sccc45)C(=O)NC3=O)c3ccccc3n2)CC1 [E.1.55]
> 7.00

Subsequent entry: O=C1NC(=O)C(c2c3n(c4ccccc24)CCC(CO)C3)=C1c1c[nH]c2sccc12 (stereo not shown) [Example #1]
6.30 to 7.00

Next: CN1CCCC(Cn2nc(C3=C(c4c[nH]c5sccc45)C(=O)NC3=O)c3ccccc32)C1 (stereo not shown) [F.4.28]
6.30 to 7.00

# iterate: CN1CCC(Cc2cn(C3=C(c4c[nH]c5sccc45)C(=O)NC3=O)c3ccccc23)CC1 [F.4.37]
> 7.00

Okay, and CN(C)C1CCN(c2nc(C3=C(c4c[nH]c5ccsc45)C(=O)NC3=O)c3ccccc3n2)CC1 [E.2.3] ?
> 7.00

Please give the result for Cc1noc(C2CCN(c3nc(C4=C(c5c[nH]c6sccc56)C(=O)NC4=O)c4ccccc4n3)CC2)n1 [E.1.10] too.
6.00 to 6.30

----------
Reported pIC50 values, PKCθ (Homo sapiens).
pIC50: −log10 of the molar value.

Below: 2 compounds and their reported pIC50.
>  <compound>
Cc1nnc2n1CCN(c1nc(C3=C(c4c[nH]c5sccc45)C(=O)NC3=O)c3ccccc3n1)C2

>  <measuredResult>
> 7.00

$$$$
>  <compound>
O=C1NC(=O)C(c2c[nH]c3sccc23)=C1c1nc(N2CC[C@@H](N3CCCC3)[C@H](F)C2)nc2ccccc12

>  <measuredResult>
> 7.00

$$$$

Could you share which pIC50 value was measured for `O=C1NC(=O)C(c2c[nH]c3ccsc23)=C1c1nc(N2CCn3cnnc3C2)nc2ccccc12` ?
6.30 to 7.00

----------
The following compounds each carry a recorded pIC50 for PKCθ (Homo sapiens, UniProt Q04759).
pIC50: −log10 of the molar value.

>  <compound>
CN1CCN(c2nc3c(c(C4=C(c5c[nH]c6sccc56)C(=O)NC4=O)n2)CCCC3)CC1

>  <targetUnderTest>
PKCθ (Homo sapiens, UniProt Q04759)

>  <pIC50>
6.30 to 7.00

$$$$
>  <compound>
O=C1NC(=O)C(c2c[nH]c3sccc23)=C1c1nc(N2CCn3c(cnc3CO)C2)nc2ccccc12

>  <targetUnderTest>
PKCθ (Homo sapiens, UniProt Q04759)

>  <pIC50>
> 7.00

$$$$
>  <compound>
O=C1NC(=O)C(c2c[nH]c3ccsc23)=C1c1nc(N2CC3CNCC3C2)nc2ccccc12 (stereo not shown)

>  <targetUnderTest>
PKCθ (Homo sapiens, UniProt Q04759)

>  <pIC50>
6.00 to 6.30

$$$$
>  <compound>
O=C1NC(=O)C(c2c[nH]c3ccsc23)=C1c1nc(N2CCN3CCCC3C2)nc2ccccc12 (stereo not shown)

>  <targetUnderTest>
PKCθ (Homo sapiens, UniProt Q04759)

>  <pIC50>
> 7.00

$$$$
>  <compound>
O=C1CN(c2nc(C3=C(c4c[nH]c5sccc45)C(=O)NC3=O)c3ccccc3n2)CCN1

>  <targetUnderTest>
PKCθ (Homo sapiens, UniProt Q04759)

>  <pIC50>
6.00 to 6.30

$$$$
>  <compound>
Cc1nccn1CC1CCN(c2nc(C3=C(c4c[nH]c5sccc45)C(=O)NC3=O)c3ccccc3n2)CC1

>  <targetUnderTest>
PKCθ (Homo sapiens, UniProt Q04759)

>  <pIC50>
6.30 to 7.00

$$$$

// returns reported pIC50 for input `CNC1(C)CCN(c2nc(C3=C(c4c[nH]c5sccc45)C(=O)NC3=O)c3ccccc3n2)CC1`
6.30 to 7.00

Now consider `O=C1NC(=O)C(c2c3ccccc3nn2CC2CCNCC2)=C1c1c[nH]c2sccc12` and answer again.
6.30 to 7.00

Now this one: `O=C1NC(=O)C(c2c[nH]c3sccc23)=C1c1nc(N2CC[C@H](N3CCCC3)[C@H](F)C2)nc2ccccc12`
6.30 to 7.00

Same lookup for `COc1ccc2nc(N3CCN(C)CC3)nc(C3=C(c4c[nH]c5sccc45)C(=O)NC3=O)c2c1` , please.
> 7.00

Similarly, `O=C1NC(=O)C(c2c[nH]c3ccsc23)=C1c1nc(N2CCC(N3CCCC3)CC2)nc2ccccc12` ?
> 7.00

Cited source for all entries: patent US20110152243A1
